Value source: ChEMBL document CHEMBL4311965

- Test system: Pseudomonas aeruginosa
- test-description: Antibacterial activity against multidrug-resistant Pseudomonas aeruginosa 50692172 producing New Delhi metallo-beta-lactamase-1 cultured in MHB medium assessed as reduction in bacterial growth incubated for 24 hrs by microdilution susceptibility test
- Format: functional
- recorded-conditions: Pseudomonas aeruginosa, 50692172, 24 h
quantity-name: MIC (µg/mL)
# number only, unit µg/mL dropped from output

Entry NCCNCC(CN)(Cc1ccc(F)c2ccccc12)Cc1ccc(F)c2ccccc12 has what MIC?
16

Entry NCCNC(=O)C(CN)(Cc1cc(C(F)(F)F)cc(C(F)(F)F)c1)Cc1cc(C(F)(F)F)cc(C(F)(F)F)c1 has what MIC?
32
